B1: PHTF1 (parent)
chain: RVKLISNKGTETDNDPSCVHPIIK

variants of: B1; experiment: protein stability index of a GFP-peptide fusion (GPS, HEK-293T) (PSI 1-6); higher = more stable; conditions: c terminus: a fixed tail appended;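 also: lentivirally expressed fusions sorted by FACS into six bins by GFP to DsRed ratio, PSI derived from sequencing read proportions per bin multiplied by bin number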
Label Yes when protein stability index is at or above 4; otherwise label No.

These solved cases illustrate the format of a correct answer.
E11R = No
K24Q = No
T12H = Yes
N14W = No
R1M = No
G9I = No
I23V = No
V2L = Yes
D15W = No
N14E = Yes

[in] Does the reported protein stability index for T12W fall at or above the 4 mark?
[out] No

[in] Does the reported protein stability index for R1P fall at or above the 4 mark?
[out] Yes

[in] Does the reported protein stability index for I23T fall at or above the 4 mark?
[out] Yes

[in] Does the reported protein stability index for D13V fall at or above the 4 mark?
[out] No

Source of measurements: the supplement of paper PMC10567573
